Recorded values, source patent US20160311887A1.

# study system: TF:fVIIa (UniProt P13726 33-295; P08709 61-466, limits assumed)
# Sequence (P13726 33-295 limits assumed, chain 1 of 2): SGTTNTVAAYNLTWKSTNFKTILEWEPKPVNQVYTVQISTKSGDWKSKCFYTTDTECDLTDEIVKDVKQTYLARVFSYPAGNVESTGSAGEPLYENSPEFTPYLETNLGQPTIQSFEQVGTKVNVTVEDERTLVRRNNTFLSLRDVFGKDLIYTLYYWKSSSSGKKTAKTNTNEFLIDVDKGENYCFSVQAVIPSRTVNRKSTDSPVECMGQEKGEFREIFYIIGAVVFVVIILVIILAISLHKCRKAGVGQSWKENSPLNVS
# Sequence (P08709 61-466 limits assumed, chain 2 of 2): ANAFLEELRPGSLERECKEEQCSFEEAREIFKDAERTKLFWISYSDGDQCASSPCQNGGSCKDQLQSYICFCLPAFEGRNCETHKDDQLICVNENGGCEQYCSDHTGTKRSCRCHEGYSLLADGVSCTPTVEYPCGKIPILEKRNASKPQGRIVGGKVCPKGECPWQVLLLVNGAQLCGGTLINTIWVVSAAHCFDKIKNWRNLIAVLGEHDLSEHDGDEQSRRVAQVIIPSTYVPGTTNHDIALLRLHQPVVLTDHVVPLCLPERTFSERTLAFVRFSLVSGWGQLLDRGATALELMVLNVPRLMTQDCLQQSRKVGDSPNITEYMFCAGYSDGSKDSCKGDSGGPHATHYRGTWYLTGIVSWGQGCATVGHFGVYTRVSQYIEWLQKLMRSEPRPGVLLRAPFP
# assay: cell-based or functional assay
Recorded PT (s), 5 µM serpin, one value per entry.
recorded metric: PT (s), 5 µM serpin

{"columns": ["binder", "value reported"],
 "data": [
  ["FL α1AT Pitts C232S P2QP1′K (other, E. coli, purified; also called 4.G4) SDPQGDAAQKTDTSHHDQDHPTFNKITPNLAEFAFSLYRQLAHQSNSTNIFFSPVSIATAFAMLSLGTKADTHDEILEGLNFNLTEIPEAQIHEGFQELLRTLNQPDSQLQLTTGNGLFLSEGLKLVDKFLEDVKKLYHSEAFTVNFGDTEEAKKQINDYVEKGTQGKIVDLVKELDRDTVFALVNYIFFKGKWERPFEVKDTEEEDFHVDQVTTVKVPMMKRLGMFNIQHSKKLSSWVLLMKYLGNATAIFFLPDEGKLQHLENELTHDIITKFLENEDRRSASLHLPKLSITGTYDLKSVLGQLGITKVFSNGADLSGVTEEAPLKLSKAVHKAVLTIDEKGTEAAGAMFLEAIQRKIPPEVKFNKPFVFLMIEQNTKSPLFMGKVVNPTQK", 27.9],
  ["FL α1AT Pitts C232S P2KP1′N (other, E. coli, purified; also called 3.B2; 2.H5) SDPQGDAAQKTDTSHHDQDHPTFNKITPNLAEFAFSLYRQLAHQSNSTNIFFSPVSIATAFAMLSLGTKADTHDEILEGLNFNLTEIPEAQIHEGFQELLRTLNQPDSQLQLTTGNGLFLSEGLKLVDKFLEDVKKLYHSEAFTVNFGDTEEAKKQINDYVEKGTQGKIVDLVKELDRDTVFALVNYIFFKGKWERPFEVKDTEEEDFHVDQVTTVKVPMMKRLGMFNIQHSKKLSSWVLLMKYLGNATAIFFLPDEGKLQHLENELTHDIITKFLENEDRRSASLHLPKLSITGTYDLKSVLGQLGITKVFSNGADLSGVTEEAPLKLSKAVHKAVLTIDEKGTEAAGAMFLEAIKRNIPPEVKFNKPFVFLMIEQNTKSPLFMGKVVNPTQK", 27.8],
  ["FL α1AT Pitts C232S P2R (other, E. coli, purified; also called P2.F10; P2.G8) SDPQGDAAQKTDTSHHDQDHPTFNKITPNLAEFAFSLYRQLAHQSNSTNIFFSPVSIATAFAMLSLGTKADTHDEILEGLNFNLTEIPEAQIHEGFQELLRTLNQPDSQLQLTTGNGLFLSEGLKLVDKFLEDVKKLYHSEAFTVNFGDTEEAKKQINDYVEKGTQGKIVDLVKELDRDTVFALVNYIFFKGKWERPFEVKDTEEEDFHVDQVTTVKVPMMKRLGMFNIQHSKKLSSWVLLMKYLGNATAIFFLPDEGKLQHLENELTHDIITKFLENEDRRSASLHLPKLSITGTYDLKSVLGQLGITKVFSNGADLSGVTEEAPLKLSKAVHKAVLTIDEKGTEAAGAMFLEAIRRSIPPEVKFNKPFVFLMIEQNTKSPLFMGKVVNPTQK", 27.8],
  ["FL α1AT Pitts C232S P2KP1′H (other, E. coli, purified; also called 1.A12) SDPQGDAAQKTDTSHHDQDHPTFNKITPNLAEFAFSLYRQLAHQSNSTNIFFSPVSIATAFAMLSLGTKADTHDEILEGLNFNLTEIPEAQIHEGFQELLRTLNQPDSQLQLTTGNGLFLSEGLKLVDKFLEDVKKLYHSEAFTVNFGDTEEAKKQINDYVEKGTQGKIVDLVKELDRDTVFALVNYIFFKGKWERPFEVKDTEEEDFHVDQVTTVKVPMMKRLGMFNIQHSKKLSSWVLLMKYLGNATAIFFLPDEGKLQHLENELTHDIITKFLENEDRRSASLHLPKLSITGTYDLKSVLGQLGITKVFSNGADLSGVTEEAPLKLSKAVHKAVLTIDEKGTEAAGAMFLEAIKRHIPPEVKFNKPFVFLMIEQNTKSPLFMGKVVNPTQK", 27.4]
]}
